assay: Drug uptake in human A549 cells assessed as mean fluorescence intensity at 2.5 uM after 4 hrs by flow cytometry (reference value: 5.4 +/- 1.5); format: ADME, cell-based; conditions: a549, 4 h
assay-metric: Flu intensity

Query: Return reported Flu intensity; argument: CCC1=C(C)C2=C(C)c3c(C)c(CC)c(C)n3[B-](F)(F)[N+]2=C1/C=C/c1ccc(O[C@H]2O[C@H](CO)[C@@H](O)[C@H](O)[C@H]2O)cc1
Result: 66.2 to 68.9
